# method: Lipid nanoparticle size and polydispersity index by dynamic light scattering (Malvern Zetasizer)
# Format: physicochemical
# reported_conditions: hEPO mRNA LNP, Process A, Cationic Lipid:DMG-PEG2000:Cholesterol:DOPE 40:1.5:28.5:30 mol %, N/P 4
outcome_measure: Polydispersity Index (PDI)
Simply state the number, no unit and no words.

Completed entries (count: 5):
compound	numeric_value
CCCCCCCCCCCCCCC(O)CN(CCCC(=O)O[C@@H]1CO[C@H]2[C@@H]1OC[C@H]2OC(=O)CCCN(CC(O)CCCCCCCCCCCCCC)CC(O)CCCCCCCCCCCCCC)CC(O)CCCCCCCCCCCCCC (stereo partly drawn) [Compound 6]	0.16
CCCCCCCCCCC(O)CN(CCCCOC(=O)O[C@@H]1CO[C@H]2[C@@H]1OC[C@H]2OC(=O)OCCCCN(CC(O)CCCCCCCCCC)CC(O)CCCCCCCCCC)CC(O)CCCCCCCCCC (stereo partly drawn) [Compound 38]	0.12
CCCCCCCCCCCCC(O)CN(CCCCC(=O)O[C@H]1CO[C@H]2[C@@H]1OC[C@H]2OC(=O)CCCCN(CC(O)CCCCCCCCCCCC)CC(O)CCCCCCCCCCCC)CC(O)CCCCCCCCCCCC (stereo partly drawn) [Compound 28]	0.103
CCCCCCCCCCCOC(=O)CCCC(O)CN(CCCC(=O)O[C@@H]1CO[C@H]2[C@@H]1OC[C@H]2OC(=O)CCCN(CC(O)CCCCCC(=O)OC(CCCCCCCC)CCCCCCCC)CC(O)CCCC(=O)OCCCCCCCCCCC)CC(O)CCCCCC(=O)OC(CCCCCCCC)CCCCCCCC (stereo partly drawn) [Compound 11]	0.1
CCCCCCCCC(O)CN(CCCCC(=O)O[C@@H]1CO[C@H]2[C@@H]1OC[C@H]2OC(=O)CCCCN(CC(O)CCCCCCCC)CC(O)CCCCCCCC)CC(O)CCCCCCCC (stereo partly drawn) [Compound 2]	0.16

Exam item: Using the record for CCCCCCCCCCCCC(O)CN(CCCOC(=O)O[C@@H]1CO[C@H]2[C@@H]1OC[C@H]2OC(=O)OCCCN(CC(O)CCCCCCCCCCCC)CC(O)CCCCCCCCCCCC)CC(O)CCCCCCCCCCCC (stereo partly drawn) [Compound 37] , state its measured Polydispersity Index (PDI).
Marked response: 0.25
